- System: SHP-77
- TEST_DETAILS: Inhibition of proliferation of small cell lung cancer cells, CellTiter-Glo
- Type: cell-based
- EXPERIMENTAL_SETUP: Homo sapiens, SHP77, 120 h; SHP-77, cultured for 5 days
ASSAY_READOUT: GI50

>>> print(df.to_string())
                                    compound  assay_readout        observed
 0  COc1cc(Nc2nc(NC3CCCCC3)c3c(C#N)c[nH]c3n2)ccc1-c1c(C)noc1C           GI50        < 100 nM
 1  COc1cc(-c2ccnn2C)c(F)cc1Nc1nc(NC2CCOCC2)c2c(C#N)c[nH]c2n1           GI50        < 100 nM
 2  COc1cc(-c2c(C)noc2C)c(F)cc1Nc1nc(NC2CCCC2)c2c(C#N)c[nH]c2n1           GI50  100 to 1000 nM
 3  COCCNc1nc(Nc2ccc(-c3nncn3C)cc2OC)nc2[nH]cc(C#N)c12           GI50        < 100 nM
 4  COc1cc(-c2c(C)noc2C)c(F)cc1Nc1nc(NC2CCOCC2)c2c(C#N)c[nH]c2n1           GI50  100 to 1000 nM
 5  Cn1cc(-c2ccc(Nc3nc(NC4CCC(F)(F)C4)c4c(C#N)c[nH]c4n3)c3c2OCCO3)cn1 (stereo not shown)           GI50        < 100 nM
 6  Cn1nccc1-c1ccc(Nc2nc(NC3CC3)c3c(C#N)c[nH]c3n2)c2c1OCCO2           GI50        < 100 nM
 7  N#Cc1c[nH]c2nc(Nc3ccc(N4CCCS4(=O)=O)c(F)c3)nc(NC3CCOCC3)c12           GI50  100 to 1000 nM
 8  COc1cc(N2CCCC2=O)ccc1Nc1nc(NC2CCCCC2)c2c(C#N)c[nH]c2n1           GI50        < 100 nM
 9  COC[C@@H](C)Nc1nc(Nc2ccc(-c3ccnn3C)c3c2OCCO3)nc2[nH]cc(C#N)c12           GI50        < 100 nM
10  COc1cc(-n2ccnc2C)ccc1Nc1nc(NC2CCOCC2)c2c(C#N)c[nH]c2n1           GI50        < 100 nM
11  COc1cc(N2CCCCS2(=O)=O)ccc1Nc1nc(NC2CCOCC2)c2c(C#N)c[nH]c2n1           GI50        < 100 nM
12  Cn1nccc1-c1ccc(Nc2nc(NC3CCOCC3)c3c(C#N)c[nH]c3n2)c2c1OCCO2           GI50        < 100 nM
13  N#Cc1c[nH]c2nc(Nc3ccc(N4CCCCS4(=O)=O)c(F)c3)nc(NC3CCOCC3)c12           GI50        < 100 nM
14  COc1cc(-c2cnn(C)c2)c(F)cc1Nc1nc(NC2CCOCC2)c2c(C#N)c[nH]c2n1           GI50        < 100 nM
15  Cn1nccc1-c1ccc(Nc2nc(NC3CCCCCC3)c3c(C#N)c[nH]c3n2)c2c1OCCO2           GI50        < 100 nM

###

- Tested on: MDA-MB-231 cells
- TEST_DETAILS: Inhibition of proliferation of triple-negative breast cancer cells, CellTiter-Glo
- Assay type: cell-based
- EXPERIMENTAL_SETUP: Homo sapiens, 120 h; MDA-MB-231, cultured for 5 days
ASSAY_READOUT: GI50

In [3]: df
Out[3]:
                                item_smiles     observed
0  N#Cc1c[nH]c2nc(Nc3ccc(N4CCCS4(=O)=O)cc3)nc(NC3CCCC3)c12     < 0.1 µM
1  COc1cc(N2CCCC2=O)ccc1Nc1nc(NC2CCOCC2)c2c(C#N)c[nH]c2n1       > 1 µM
2  COc1cc(-c2ccccc2)ccc1Nc1nc(NC2CCOCC2)c2c(C#N)c[nH]c2n1     < 0.1 µM
3  N#Cc1c[nH]c2nc(Nc3ccc(-c4ccc(CN5CCN(C6CC6)CC5)cc4)cc3)nc(NC3CCCCC3)c12  0.1 to 1 µM
4  COCCNc1nc(Nc2ccc(-n3ccnc3C)cc2OC)nc2[nH]cc(C#N)c12     < 0.1 µM
5  COc1cc(N2CCCCS2(=O)=O)ccc1Nc1nc(NC2CCOCC2)c2c(C(F)(F)F)c[nH]c2n1     < 0.1 µM
6  Cn1cc(-c2ccc(Nc3nc(NC4CCCCCC4)c4c(C#N)c[nH]c4n3)c3c2OCCO3)cn1     < 0.1 µM

###

- System: MDA-MB-231 cells
- TEST_DETAILS: Inhibition of proliferation of triple-negative breast cancer cells, CellTiter-Glo
- Format: cell-based
- EXPERIMENTAL_SETUP: Homo sapiens, 120 h; MDA-MB-231, cultured for 5 days
- Method: Specifically, the following test was performed in order to evaluate the inhibitory activity of the compound according to the present invention against the cell proliferation in triple-negative breast cancer cells (TNBCs). Cells were seeded in 180 μL of a culture broth at a density of 2,000 to 3,000 cells/well in a white clear bottom 96-well plate (Corning) according to the growth ability of each cell, and then cultured for 24 hours under conditions of 5% CO2 and 37° C. […]
Parameter: GI50. Scope: all listed entries.
ASSAY_READOUT: GI50

>>> df
                                   compound       system_name  assay_readout        observed
0  COc1cc(-c2nncn2C)ccc1Nc1nc(NC2CCOCC2)c2c(C(F)(F)F)c[nH]c2n1  MDA-MB-231 cells           GI50        < 100 nM
1  COc1cc(-c2ccnn2C)ccc1Nc1nc(NC2CCCCC2)c2cc[nH]c2n1  MDA-MB-231 cells           GI50  100 to 1000 nM
2  Cn1nccc1-c1ccc(Nc2nc(NC3COC3)c3c(C#N)c[nH]c3n2)c2c1OCCO2  MDA-MB-231 cells           GI50       > 1000 nM
3  Cn1nccc1-c1ccc(Nc2nc(NC3CCOC(C)(C)C3)c3c(C(F)(F)F)c[nH]c3n2)c2c1OCCO2 (centres unmarked)  MDA-MB-231 cells           GI50        < 100 nM
4  Cn1nccc1-c1ccc(Nc2nc(NC3CCOC(C)(C)C3)c3c(C#N)c[nH]c3n2)c2c1OCCO2 (centres unmarked)  MDA-MB-231 cells           GI50        < 100 nM

###

- Tested on: MDA-MB-231 cells
- TEST_DETAILS: Inhibition of proliferation of triple-negative breast cancer cells, CellTiter-Glo
- Type: cell-based
- EXPERIMENTAL_SETUP: Homo sapiens, 120 h; MDA-MB-231, cultured for 5 days
Counter-ions that a name gives are not always drawn.
Parameter: GI50. Scope: all listed entries.
ASSAY_READOUT: GI50

                                    compound       system_name        observed
 0  COCCNc1nc(Nc2ccc(-c3nncn3C)cc2OC)nc2[nH]cc(C#N)c12 [Example 95]  MDA-MB-231 cells  100 to 1000 nM
 1  COc1cc(N2CCCC2=O)ccc1Nc1nc(NC2CCC2)c2c(C#N)c[nH]c2n1 [Example 69]  MDA-MB-231 cells       > 1000 nM
 2  N#Cc1c[nH]c2nc(Nc3ccc(N4CCCCS4(=O)=O)cc3)nc(NC3CCOCC3)c12 [Example 164]  MDA-MB-231 cells        < 100 nM
 3  COc1cc(-c2c(C)noc2C)c(F)cc1Nc1nc(NC2CCOCC2)c2c(C#N)c[nH]c2n1 [Example 102]  MDA-MB-231 cells  100 to 1000 nM
 4  COc1cc(-c2ccnn2C)ccc1Nc1nc(NC2CCCC2)c2c(Cl)c[nH]c2n1 [Example 127]  MDA-MB-231 cells        < 100 nM
 5  COc1cc(N2CCCC2=O)ccc1Nc1cc(NC2CCCC2)c2c(C#N)c[nH]c2n1 [Example 63]  MDA-MB-231 cells  100 to 1000 nM
 6  COc1cc(N2CCCCS2(=O)=O)ccc1Nc1nc(NC2CCCC2)c2c(C(F)(F)F)c[nH]c2n1 [Example 177]  MDA-MB-231 cells  100 to 1000 nM
 7  COc1cc(Nc2nc(NC3CCCCC3)c3c(C#N)c[nH]c3n2)ccc1-c1cnn(C)c1 [Example 137]  MDA-MB-231 cells        < 100 nM
 8  N#Cc1c[nH]c2nc(Nc3ccc(N4CCCC4=O)cc3)nc(NC3CCCCC3)c12 [Example 80]  MDA-MB-231 cells        < 100 nM
 9  N#Cc1c[nH]c2nc(Nc3ccc(N4CCCS4(=O)=O)c(F)c3)nc(NC3CCCC3)c12 [Example 173]  MDA-MB-231 cells  100 to 1000 nM
10  COc1cc(-c2c(C)noc2C)c(F)cc1Nc1nc(NC2CCCCC2)c2c(C#N)c[nH]c2n1 [Example 123]  MDA-MB-231 cells       > 1000 nM
11  COc1cc(-c2ccn(C)n2)ccc1Nc1nc(NC2CCCC2)c2c(C#N)c[nH]c2n1 [Example 2]  MDA-MB-231 cells        < 100 nM
12  CC[C@@H](C)Nc1nc(Nc2ccc(-c3ccnn3C)cc2OC)nc2[nH]cc(C#N)c12 [Example 10, trifluoroacetate]  MDA-MB-231 cells        < 100 nM
13  C[C@@H](Oc1cc(C(=O)N(C)C)ccc1Nc1nc(O[C@H]2CC[C@@](C)(O)CC2)c2c(Cl)c[nH]c2n1)C(F)(F)F [Example 86]  MDA-MB-231 cells        < 100 nM
14  COc1cc(-c2ccnn2C)ccc1Nc1nc(NC2CCOC(C)(C)C2)c2c(C#N)c[nH]c2n1 (stereo not drawn) [Example 115]  MDA-MB-231 cells        < 100 nM
